Answer each item with its documented hERG current change (%, negative = inhibition) at 10uM.
# assayed target: human ether-à-go-go-related gene (hERG) potassium channel (human, UniProt Q12809);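 note: peak tail current of the secondary pulse compared with the same well before compound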
# Sequence (Q12809 whole entry, looked up): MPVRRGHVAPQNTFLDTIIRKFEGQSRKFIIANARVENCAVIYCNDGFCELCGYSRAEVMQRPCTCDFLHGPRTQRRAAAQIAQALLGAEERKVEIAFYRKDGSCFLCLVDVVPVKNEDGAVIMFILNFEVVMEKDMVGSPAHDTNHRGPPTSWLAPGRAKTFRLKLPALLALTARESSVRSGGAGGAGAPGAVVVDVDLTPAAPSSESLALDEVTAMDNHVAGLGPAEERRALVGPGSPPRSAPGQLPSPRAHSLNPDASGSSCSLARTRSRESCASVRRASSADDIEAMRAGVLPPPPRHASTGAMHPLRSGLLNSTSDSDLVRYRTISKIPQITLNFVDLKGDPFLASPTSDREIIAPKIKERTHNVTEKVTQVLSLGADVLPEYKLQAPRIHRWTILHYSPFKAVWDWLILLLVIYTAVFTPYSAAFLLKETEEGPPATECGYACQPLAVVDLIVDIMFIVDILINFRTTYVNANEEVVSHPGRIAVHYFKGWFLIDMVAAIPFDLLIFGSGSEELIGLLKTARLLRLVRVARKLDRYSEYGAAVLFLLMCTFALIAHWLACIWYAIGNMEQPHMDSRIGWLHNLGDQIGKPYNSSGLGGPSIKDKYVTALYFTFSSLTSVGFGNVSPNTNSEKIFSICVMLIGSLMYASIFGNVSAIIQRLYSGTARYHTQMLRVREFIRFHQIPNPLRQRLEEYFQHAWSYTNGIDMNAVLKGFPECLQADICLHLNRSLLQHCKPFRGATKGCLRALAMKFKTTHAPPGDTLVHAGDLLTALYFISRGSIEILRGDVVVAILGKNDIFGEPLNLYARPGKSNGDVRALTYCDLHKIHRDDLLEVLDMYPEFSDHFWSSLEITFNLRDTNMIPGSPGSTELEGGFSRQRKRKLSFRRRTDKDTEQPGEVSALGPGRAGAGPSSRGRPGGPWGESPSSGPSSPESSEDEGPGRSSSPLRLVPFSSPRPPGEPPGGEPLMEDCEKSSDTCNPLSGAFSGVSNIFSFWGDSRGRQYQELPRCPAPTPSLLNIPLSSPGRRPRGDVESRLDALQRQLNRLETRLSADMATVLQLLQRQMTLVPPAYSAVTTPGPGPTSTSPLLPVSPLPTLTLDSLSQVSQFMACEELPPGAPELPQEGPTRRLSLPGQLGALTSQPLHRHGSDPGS
# test summary: primary screen, population patch clamp on CHO cells stably expressing hERG; higher = less effect of the substance
# Experimental: Briefly, Chinese hamster ovary (CHO) cells stably expressing the hERG channel were dislodged from tissue culture flasks and dispensed into PPC plates. […] During the recording, background leak currents were estimated by a 100 ms step to -80 mV from an initial holding potential of -70 mV and subtracted from the subsequent current measurement. The campaign was conducted in two phases using slight differences in recording protocol. […]
In all, about 310,000 compounds went through this assay and about 14,000 (4.5%) showed an effect of 50% or more. Effects have a minus sign here. The list comes from a sample in which strong results are over-represented; it also holds close analogues and randomly drawn compounds.
Value expressed in %; do not type the unit.

Incoming: Which hERG current change (%, negative = inhibition) at 10uM value is on record for "CCN(CC)S(=O)(=O)c1ccc(N(C)Cc2cccnc2)nc1" ?
Outgoing: -15.2

Incoming: Consider the compound "Cc1cccn2c(=O)c3cc(C#N)c(=NC(=O)c4ccncc4)n(CCCOC(C)C)c3nc12" and give its measured hERG current change (%, negative = inhibition) at 10uM.
Outgoing: -85.1

Incoming: What value of hERG current change (%, negative = inhibition) at 10uM has been recorded for this entry: "Cc1cc(C)c2cc(CN(Cc3cccnc3)C(=O)c3ccc(F)cc3)c(Cl)nc2c1"
Outgoing: -64.7

Incoming: Bench note: what hERG current change (%, negative = inhibition) at 10uM did "COC(=O)CSc1nc2nc(C)cc(C)n2n1" show?
Outgoing: 4.29

Incoming: Endpoint output: hERG current change (%, negative = inhibition) at 10uM of O=C(O)C(=O)O.OC(CNCCc1ccc(Cl)cc1Cl)COc1ccccc1 (stereo not drawn) . Value?
Outgoing: -25.7

Incoming: # get_value(readout='hERG current change (%, negative = inhibition) at 10uM', item= CCC1CCC(N2CCN(c3ccc([N+](=O)[O-])cc3)CC2)CC1 (stereo not drawn) )
Outgoing: -79.8

Incoming: What hERG current change (%, negative = inhibition) at 10uM value was documented for this compound, COc1ccc(C2=CC3=C(Br)C(=O)C(C)(O)C(=O)C3=CO2)cc1 (stereo not drawn) ?
Outgoing: 11.9

Incoming: Can you look up the measured hERG current change (%, negative = inhibition) at 10uM of "O=c1cc(CSc2ccccc2)[nH]c2ccccc12" for me?
Outgoing: 8.17

Incoming: // query hERG current change (%, negative = inhibition) at 10uM value for entry "COc1cc(C)c(Cl)cc1S(=O)(=O)NCCN1CCOCC1"
Outgoing: 15.9

Incoming: Endpoint output: hERG current change (%, negative = inhibition) at 10uM of "COCCCn1c(=NC(C)=O)c(C#N)cc2c(=O)n3cccc(C)c3nc21" . Value?
Outgoing: -49.7

Incoming: What does the record list as hERG current change (%, negative = inhibition) at 10uM for "COc1ccc(NC(=O)CSc2nccn2Cc2ccco2)cc1OC" ?
Outgoing: 11.3

Incoming: # input compound: "O=[N+]([O-])c1ccc(N2CCSCC2)cc1" ; wanted: its hERG current change (%, negative = inhibition) at 10uM
Outgoing: -10.4

Incoming: Fill in: hERG current change (%, negative = inhibition) at 10uM of NNC(=O)CN1C(CN2CCOCC2)=Nc2ccc(Br)cc2C1c1ccccc1 (stereo not drawn) is ___
Outgoing: -48.9

Incoming: What value of hERG current change (%, negative = inhibition) at 10uM has been reported for the following compound? "CCS(=O)(=O)N1CCC(N2CCN(c3ccccc3)CC2)CC1"
Outgoing: -10.9

Incoming: # hERG current change (%, negative = inhibition) at 10uM lookup, item CCC1CCC(N2CCN(c3ccccc3F)CC2)CC1 (stereo not drawn)
Outgoing: -22.2

Incoming: Dear colleague, I am looking for the recorded hERG current change (%, negative = inhibition) at 10uM of the following compound: "CC(=O)Nc1nc(N)n(-c2ccccc2)n1"
Outgoing: 3.2

Incoming: Look up hERG current change (%, negative = inhibition) at 10uM: COC(=O)CN1C(CN2CCOCC2)=Nc2ccc(Br)cc2C1c1ccccc1 (stereo not drawn)
Outgoing: -75.3

Incoming: Give its hERG current change (%, negative = inhibition) at 10uM value. Item: CCC1CCC(N2CCN(c3cccc(OC)c3)CC2)CC1 (stereo not drawn)
Outgoing: -33.7

Incoming: Which hERG current change (%, negative = inhibition) at 10uM is listed for CCC1=Nc2ccc(Br)cc2C(c2ccccc2)N1CC(=O)OC (stereo not drawn) ?
Outgoing: -59.1

Incoming: Entry "O=C(COc1ncnc2ccccc12)Nc1ccc(Cl)c(S(=O)(=O)N2CCOCC2)c1" : reported hERG current change (%, negative = inhibition) at 10uM = ?
Outgoing: -13.5

Incoming: Return reported hERG current change (%, negative = inhibition) at 10uM; argument: COc1cc2c(cc1O)CC1c3c(cc(O)c(OC)c3-2)CCN1C (stereo not drawn)
Outgoing: -59.2

Incoming: Could you tell me which hERG current change (%, negative = inhibition) at 10uM is on file for CC1(C)Cc2c(cnn2-c2ccc(F)cc2)C(NC(=O)CCCN2CCCCC2=O)C1 (stereo not drawn) ?
Outgoing: 2.89

Incoming: # hERG current change (%, negative = inhibition) at 10uM lookup, item CC1CCC(N2CCN(c3ccc([N+](=O)[O-])cc3)CC2)CC1 (stereo not drawn)
Outgoing: -74.8

Incoming: Endpoint output: hERG current change (%, negative = inhibition) at 10uM of "O=[N+]([O-])c1ccc(N2CCN(c3ccccc3)CC2)cc1" . Value?
Outgoing: 4.77

Incoming: Which hERG current change (%, negative = inhibition) at 10uM is reported for this compound? COC(=O)C1C(O)=C(C=Nc2ccc3ccccc3c2)C(=O)CC1(C)C (stereo not drawn)
Outgoing: -8.23

Incoming: Given "CCOC(=O)CCSc1nc2c(c(C(F)(F)F)c1C#N)CCC2" , state its recorded hERG current change (%, negative = inhibition) at 10uM.
Outgoing: 3.58

Incoming: State the recorded hERG current change (%, negative = inhibition) at 10uM for this entry: "COc1cc2c(cc1OC)-c1c3c(cc4c1[C@@H](C2)N(C)CC4)OCO3"
Outgoing: -31.7

Incoming: // returns reported hERG current change (%, negative = inhibition) at 10uM for input "CC(=O)Nc1c(O)nc(SCC(=O)Nc2cccc(C)c2)[nH]c1=O"
Outgoing: 14.8

Incoming: Using the record for "Cc1cccc2cc(CN(Cc3cccnc3)C(=O)c3ccccc3F)c(Cl)nc12" , report its hERG current change (%, negative = inhibition) at 10uM.
Outgoing: -49.6

Incoming: Form field: reported hERG current change (%, negative = inhibition) at 10uM of "COc1ccc(N2CCN(c3nc4ccccc4nc3NS(=O)(=O)c3ccccc3)CC2)cc1"
Outgoing: 1.21

Incoming: Which hERG current change (%, negative = inhibition) at 10uM reading was recorded for the compound "CCCN1CCC(N2CCN(c3ccc([N+](=O)[O-])cc3)CC2)CC1" ?
Outgoing: -74.3

Incoming: Could you tell me which hERG current change (%, negative = inhibition) at 10uM is on file for "COc1ccc(N2CCN(C(=O)Cn3ncc4c([nH]c5ccccc54)c3=O)CC2)cc1" ?
Outgoing: 9.02

Incoming: // lookup hERG current change (%, negative = inhibition) at 10uM for "COCCCn1c(=NC(=O)c2ccccc2)c(C#N)cc2c(=O)n3cccc(C)c3nc21"
Outgoing: -71.5

Incoming: Quick one: hERG current change (%, negative = inhibition) at 10uM of "COc1cc2c(cc1O)[C@@H]1Cc3cc(O)c(OC)cc3[C@H](C2)N1C" ?
Outgoing: 11.3

Incoming: Param item = "COc1cc2c(cc1O)C[C@H]1c3c(cc(O)c(OC)c3-2)CCN1C" ; retrieve measured hERG current change (%, negative = inhibition) at 10uM.
Outgoing: -70.1

Incoming: State the recorded hERG current change (%, negative = inhibition) at 10uM for this entry: CCC1CCC(N2CCN(c3ccc(F)cc3)CC2)CC1 (stereo not drawn)
Outgoing: -52.1

Incoming: I have this compound here, "O=c1c2ccccc2oc2nc(-c3ccco3)n(Cc3ccccc3)c(=O)c12" , and I need its recorded hERG current change (%, negative = inhibition) at 10uM.
Outgoing: -9.22

Incoming: Reported hERG current change (%, negative = inhibition) at 10uM for C1CCC(C(CC2CCCCN2)C2CCCCC2)CC1.O=C(O)/C=C\C(=O)O (stereo not drawn) : what is it?
Outgoing: -22.6

Incoming: // hERG current change (%, negative = inhibition) at 10uM lookup, key: COC(=O)CN1C(C)=Nc2ccc(C)cc2C1c1ccccc1 (stereo not drawn)
Outgoing: -43.1

Incoming: Quick check: hERG current change (%, negative = inhibition) at 10uM of "O=C(O)/C=C/c1ccccc1Oc1ccc(Cl)cc1Cl" ?
Outgoing: -8.85

Incoming: Consider the compound shown here: "CCCNC(=O)c1ccc(CN2CCOCC2)cc1" What is its recorded hERG current change (%, negative = inhibition) at 10uM?
Outgoing: 8.4

Incoming: For the compound "CCC(=O)N=c1sc2c(OC)ccc(OC)c2n1C" , what hERG current change (%, negative = inhibition) at 10uM is on record?
Outgoing: 11
